Attribution: patent US20050203187A1

assay: Cytotoxicity in human foreskin fibroblast cells; type: cell-based; settings: stationary HFF cells
METRIC_NAME: CC50

Data request: Report CC50 for Nc1nc2c(ncn2COCCO)c(=O)[nH]1 [Acyclovir, reference compound] please.
Data returned: > 100 µg/mL
